# Test system: HCC-2998 colon
# TEST SUMMARY: NCI tumour cell line growth inhibition, 48 h
Reported TGI values follow for various compounds

- COMPOUND: "C=C(C)C(CC=C(C)C)CC12CC(CC=C(C)C)C(C)(C)C(CC=C(C)C)(C(=O)C(Cc3ccc(O)c(O)c3)=C1O)C2=O (stereo not drawn)"
  ASSAYED SYSTEM: "HCC-2998 colon"
  TGI: "> 100 µM"
- COMPOUND: "Ic1ccc(Nc2nc3nonc3nc2Nc2ccc(I)cc2)cc1"
  ASSAYED SYSTEM: "HCC-2998 colon"
  TGI: "> 100 µM"
- COMPOUND: "COCCOc1cc(F)c2c(Nc3ccc(NC(=O)Cn4cc(C(C)C)nn4)cc3)ncnc2c1"
  ASSAYED SYSTEM: "HCC-2998 colon"
  TGI: "> 100 µM"

---

# Tested on: SW-620 colon
# TEST SUMMARY: NCI tumour cell line growth inhibition, 48 h
Reported TGI values follow for various compounds
MEASUREMENT TYPE: TGI (µM)

- COMPOUND: "Cc1cc(=O)[nH]c(NN2C(Cl)C(=O)C2c2cccc(O)c2)n1 (stereo not drawn)"
  MEASUREMENT QUALIFIER: ">"
  OBSERVED RESULT: 100
- COMPOUND: "Cc1ccc(Cl)cc1Nc1nc(C(F)(F)F)ccc1C(=O)N1CCN(c2ccc(F)cc2)CC1"
  MEASUREMENT QUALIFIER: "="
  OBSERVED RESULT: 24.6
- COMPOUND: "C[N+](C)([O-])CCC=C1c2ccccc2CCc2ccccc21"
  MEASUREMENT QUALIFIER: "="
  OBSERVED RESULT: 62.3

---

Reported TGI values follow for various compounds
# Tested on: NCI-H460 lung
# TEST SUMMARY: NCI tumour cell line growth inhibition, 48 h

- ENTRY SMILES: "COCCOc1cc(F)c2c(Nc3ccc(NC(=O)Cn4cc(C(C)C)nn4)cc3)ncnc2c1"
  TGI: "> 100 µM"
- ENTRY SMILES: "C[C@]12CC[C@H](O)CC1=CC[C@@H]1[C@@H]2CC[C@]2(C)C(=O)[C@@H](N3CCOCC3)C[C@@H]12"
  TGI: "> 100 µM"
- ENTRY SMILES: "O=[N+]([O-])c1ccc(C=C2C(Cl)=C(Cl)C(Cl)=C2Cl)cc1"
  TGI: "> 100 µM"

---

# System: U251 CNS
# TEST SUMMARY: NCI tumour cell line growth inhibition, 48 h
MEASUREMENT TYPE: TGI

- MOLECULE: "CCSc1n/c(=C\\c2ccco2)c2nnnn12"
  MEASUREMENT TYPE: "TGI"
  OBSERVED RESULT: "> 100 µM"
- MOLECULE: "CC(C)(C)OC(=O)NCC(O)CNC(=O)OC(C)(C)C"
  MEASUREMENT TYPE: "TGI"
  OBSERVED RESULT: "> 100 µM"
- MOLECULE: "CCOC(=O)C1=CC(C)(C(=O)OCC)Nc2c(nc(OC)n(C)c2=O)N1 (stereo not drawn)"
  MEASUREMENT TYPE: "TGI"
  OBSERVED RESULT: "> 10 µM"

---

# System: OVCAR-4 ovarian
# TEST SUMMARY: NCI tumour cell line growth inhibition, 48 h

- COMPOUND: "C[C@]12C=CC(=O)C=C1CC[C@H]1[C@@H]3C[C@@H](O)[C@](O)(C(=O)CO)[C@@]3(C)C[C@H](O)[C@@]12F"
  TGI: "> 100 µM"
- COMPOUND: "CCC(C)(C)/C(CC(O)(C(F)(F)F)C(F)(F)F)=N\\O"
  TGI: "> 100 µM"
- COMPOUND: "Cc1cc(Br)cc(C)c1NC(=O)C(=O)C(C(=O)c1ccc2ccccc2c1)C1OC(=O)c2ccccc21 (stereo not drawn)"
  TGI: "> 36.4 µM"

Source listed as PubChem BioAssay (NCI).
